List of EC50 values.
Target: UniProt:P35557
Sequence (P35557 whole entry): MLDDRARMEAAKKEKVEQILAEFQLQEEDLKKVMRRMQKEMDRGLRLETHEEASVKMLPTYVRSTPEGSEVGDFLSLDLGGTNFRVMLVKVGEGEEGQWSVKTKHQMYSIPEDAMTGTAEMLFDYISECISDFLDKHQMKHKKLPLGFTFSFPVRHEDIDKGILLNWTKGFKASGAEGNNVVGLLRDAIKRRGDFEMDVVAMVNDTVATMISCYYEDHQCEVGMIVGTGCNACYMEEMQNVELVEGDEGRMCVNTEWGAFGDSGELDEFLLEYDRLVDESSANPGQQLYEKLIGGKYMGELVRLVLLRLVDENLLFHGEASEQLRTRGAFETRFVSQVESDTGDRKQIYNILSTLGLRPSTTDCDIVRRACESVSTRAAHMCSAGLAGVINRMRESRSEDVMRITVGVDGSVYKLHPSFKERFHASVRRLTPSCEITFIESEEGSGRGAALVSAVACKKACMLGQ
Note: unit nM is implicit; provide only the numeric part.

| molecule | EC50 [nM] |
| --- | --- |
| Cc1csc(NC(=O)c2cc(Sc3ccccn3)ccc2N)n1 | 220 |

Look up and report measured EC50 for this entry: `Cc1csc(NC(=O)c2cc(Cl)ccc2N)n1` 1400

Name the recorded EC50 of the item `Cc1csc(NC(=O)c2cc(Oc3ccccc3)ccc2N)n1` in your answer. 130

Given the compound `Cc1csc(NC(=O)c2cccc(Cl)c2)n1` , write its reported EC50. 6300

Using known records, supply EC50 for `COc1ccccc1Oc1ccc(N)c(C(=O)Nc2nc(C)cs2)c1` 120

Give EC50 for `Cn1cnnc1Sc1ccc(N)c(C(=O)Nc2nccs2)c1` 130

----------
// values below are log10(EC50); system is UniProt P35557
The common logarithm of EC50 in µM is what is listed.

| molecule | log10(EC50) |
| --- | --- |
| Cn1cnnc1Sc1ccc(N)c(C(=O)Nc2ncns2)c1 | -0.31 |
| CCOc1ccc(N)c(C(=O)Nc2nc(C)cs2)c1 | 0.83 |
| CCOC(=O)c1csc(NC(=O)c2cc(Sc3nncn3C)ccc2N)n1 | 0.04 |
| Cn1cnnc1Sc1ccc(N)c(C(=O)Nc2nccs2)c1 | -0.46 |
| Cc1csc(NC(=O)c2cc(Sc3ccccn3)ccc2N)n1 | 0.08 |

Note: attention shifts to another entry.
Check UniProt P35557 data and give log10(EC50) for `Cc1csc(NC(=O)c2cc(Sc3nccn3C)ccc2N)n1` . -0.64

----------
assay: Tmax in Wistar rat at 1 mg/kg, iv and 3 mg/kg, po; format: ADME, organism-based; details: in vivo
quantity-name: Tmax (min)
Expressed in min, but write only the number.

Give reported Tmax value for `Cc1csc(NC(=O)c2cc(Sc3nncn3C)ccc2N)n1` 30

----------
Quick note: these are EC50 numbers for system: Hexokinase-4 (Homo sapiens, UniProt P35557)
The answer is to be given in µM; state only the numeric part.

For orientation, consider the following solved cases.
| molecule | quantity-name | measurement-unit | readout-value |
| --- | --- | --- | --- |
| CCOC(=O)c1csc(NC(=O)c2cc(Sc3nncn3C)ccc2N)n1 | EC50 | µM | 0.42 |
| Cc1cnc(NC(=O)c2cc(Sc3nncn3C)ccc2N)s1 | EC50 | µM | 0.11 |
| Cc1csc(NC(=O)c2cc(Sc3nccn3C)ccc2N)n1 | EC50 | µM | 0.1 |

# evaluate next
Please report EC50 for the following compound: `CCSc1ccc(N)c(C(=O)Nc2nc(C)cs2)c1` 0.18
